Recorded GI50 by entry
test system: COLO 205; assay: NCI tumour cell line growth inhibition, 48 h
The source made the active and inactive calls. No stated cut-off is given here; in the data, active = GI50 up to about 1.1 µM and inactive = higher.
Quantity measured: GI50

Compound	Test system	Quantity measured	Result
CNC(=O)/C(=C/c1ccc(OC)cc1)c1cc(OC)c(OC)c(OC)c1	COLO 205	GI50	1.16 µM (inactive)
Cc1nc2cc([N+](=O)[O-])ccc2c(NCCCN(C)C)c1C	COLO 205	GI50	2.56 µM (inactive)
Cc1cc(-c2ccc(/N=N/c3ccc4c(S(=O)(=O)O)cc(S(=O)(=O)O)c(N)c4c3O)c(C)c2)ccc1/N=N/c1ccc2c(S(=O)(=O)O)cc(S(=O)(=O)O)c(N)c2c1O	COLO 205	GI50	> 100 µM (inactive)
CC(C)c1cc2c(c(O)c1O)[C@@]1(C)CCCC(C)(C)C1=C(O)C2	COLO 205	GI50	2.84 µM (inactive)
CC1=C[C@@H](C)C[C@]2(C)CC[C@H](O2)[C@]23CC[C@](C)(C[C@H](O2)[C@@H]2O[C@@](C)(CC2=O)[C@@H](O)[C@H]2CC[C@@]4(CCC[C@@H](O4)[C@H](C)C(=O)O[C@H]4C[C@H]([C@]5(O)OCC[C@H](C)[C@@H]5O)O[C@H]4C=C1)O2)O3	COLO 205	GI50	0.00127 µM (active)
Cc1ccc2nc(C(=O)O)c(=O)[nH]c2c1	COLO 205	GI50	> 100 µM (inactive)
CN(C)CC1CC/C(=C\c2ccc(Cl)c(Cl)c2)C1=O (stereo not drawn)	COLO 205	GI50	32.9 µM (inactive)
CC(C)(C)OC(=O)NC(Cc1ccc(OCc2ccccc2)cn1)C(=O)O (stereo not drawn)	COLO 205	GI50	> 100 µM (inactive)

----------
test system: EKVX; assay: NCI tumour cell line growth inhibition, 48 h
Activity calls are given as the source filed them. Cut-off read from the data, not from the text of the source: active = GI50 up to about 1.1 µM and inactive = higher.

Compound	Test system	GI50
O=C1C(Cl)N(c2c(Cl)cccc2Cl)C1c1c[nH]c2ccccc12 (stereo not given)	EKVX	> 100 µM (inactive)
CC(C)(C)n1nc(C2CC2)cc1NC(=O)Nc1ccc(Cl)cc1	EKVX	> 100 µM (inactive)
COc1cc2c(cc1OC)CC(=O)Nc1cc(OC)c(OC)cc1CC2	EKVX	> 100 µM (inactive)
O=c1c2cc([N+](=O)[O-])cnc2sn1-c1ccc(Br)cc1	EKVX	42.5 µM (inactive)
CC(=O)OC1C(COC(N)=O)OC(n2c(-c3ccc(C)cc3)cc(-c3ccccc3)c(C#N)c2=O)C(OC(C)=O)C1OC(C)=O (stereo not given)	EKVX	> 100 µM (inactive)

----------
tested on: HCC 2998; assay: NCI tumour cell line growth inhibition, 48 h
Activity calls are given as the source filed them. Rule as the data show it: active = GI50 up to about 1.1 µM and inactive = higher.
Quantity measured: GI50

Compound	Quantity measured	Result
N=c1oc2ccccc2cc1-c1nc2ccccc2c(=O)[nH]1	GI50	90.2 µM (inactive)
Nc1nc(Cl)c2ncn(Cc3ccccc3CCl)c2n1	GI50	2.99 µM (inactive)
CCOP(=O)(OCC)C1CCCCOC1=O (configuration not stated)	GI50	> 100 µM (inactive)
O=c1ccn2n1Cc1ccccc1C2	GI50	> 100 µM (inactive)
O=C(O)C1CCCCC1C(=O)Nn1cnnc1 (configuration not stated)	GI50	> 100 µM (inactive)
Cn1c2c([N+](=O)[O-])[se]nc2c(=O)n1-c1ccc([N+](=O)[O-])cc1	GI50	1.74 µM (inactive)
COc1cc(C2c3[nH]c4ccc(F)cc4c3C[C@H]3COC(=O)N23)cc(OC)c1O (some centres not stated)	GI50	14.1 µM (inactive)
COc1ccc(C2=C(N)c3ncccc3C2=O)cc1	GI50	> 100 µM (inactive)
CC(=O)Oc1c(C)cc2c(c1C)C(C)CN2C(C)=O (configuration not stated)	GI50	> 100 µM (inactive)
Cc1cc(=O)oc2cc(OCc3nc4ccccc4c(=O)n3-c3ccccc3)ccc12	GI50	> 100 µM (inactive)
COCOCCC#CCO	GI50	> 100 µM (inactive)
COC(=O)c1c(OC(C)=O)ccc2c1c1c(OC(C)=O)c3ccccc3c(OC(C)=O)c1n2Cc1cc(OC)cc(OC)c1	GI50	2.56 µM (inactive)
C/C(=N\NC(N)=O)C(CN1CCCCC1)C(c1ccccc1)c1c(O)c2ccccc2oc1=O (configuration not stated)	GI50	> 100 µM (inactive)
CC1=C2CC(C)(C)/C=C\C(=O)/C(C)=C\C3=C[C@H](C)C[C@]3(O2)C1=O	GI50	4.85 µM (inactive)
CC(C)(C)OC(=O)NC(CSCc1ccc(C(=O)c2ccccc2)cc1)C(=O)O (configuration not stated)	GI50	> 100 µM (inactive)
CCC(=C(c1ccc(OCc2ccccc2)cc1)c1ccc(OCc2ccccc2)cc1)c1ccc(OC)cc1	GI50	> 100 µM (inactive)
OC1NC2CC3NC(O)C(O)NC3CC2NC1O (configuration not stated)	GI50	> 100 µM (inactive)
Cc1c2ccccc2c(C)n2c1nc1cc3ccccc3cc12	GI50	1.78 µM (inactive)
CC(=O)Nc1cccc(N2C(=O)/C(=C\c3cccc(Oc4ccccc4)c3)S(=O)(=O)C2c2ccccc2)c1 (configuration not stated)	GI50	> 100 µM (inactive)
CCCC(=O)n1[nH]c(=O)n(-c2ccc(Cl)cc2)c1=O	GI50	> 100 µM (inactive)
CC(C)C(Nc1c2ccccc2[n+]([O-])c2ccccc12)C(=O)O (configuration not stated)	GI50	> 100 µM (inactive)
CCCCCCNC(=O)CCN(C(=O)O)S(=O)(=O)c1ccc(NC(=O)c2ccccc2)cc1	GI50	> 100 µM (inactive)
